- System: Amaranthus retroflexus
- Method description: Post-emergence herbicidal activity against one-leaf stage of Amaranthus retroflexus under greenhouse condition at 750 g /ha measured after 24 days by spray method
- Assay type: functional
- Condition details: 576 h, read-out: GI
Reported property: inhibition of growth at 750 g/ha (%)

| Molecule | Reported property | Quantitative readout |
| --- | --- | --- |
| Cc1ccc(COc2nnc(C)cc2-c2cccc(C(F)(F)F)c2)cc1 | inhibition of growth at 750 g/ha | 22 |
| Cc1cc(-c2cccc(C(F)(F)F)c2)c(Oc2ccccc2C(F)(F)F)nn1 | inhibition of growth at 750 g/ha | 3 |
| Cc1cc(-c2cccc(C(F)(F)F)c2)c(Oc2ccc(C#N)cc2)nn1 | inhibition of growth at 750 g/ha | 100 |
| Cc1cc(-c2cccc(C(F)(F)F)c2)c(Oc2ccccc2Br)nn1 | inhibition of growth at 750 g/ha | 0 |
| Cc1cc(-c2cccc(C(F)(F)F)c2)c(OCc2ccccc2Br)nn1 | inhibition of growth at 750 g/ha | 54 |
| Cc1cc(-c2cccc(C(F)(F)F)c2)c(Oc2ccccc2C)nn1 | inhibition of growth at 750 g/ha | 50 |
| Cc1cc(-c2cccc(C(F)(F)F)c2)c(OCc2cccc(F)c2)nn1 | inhibition of growth at 750 g/ha | 47 |
| O=C(Nc1ccc(F)cc1F)c1cccnc1Oc1cccc(C(F)(F)F)c1 [DIFLUFENICAN] | inhibition of growth at 750 g/ha | 100 |
| Cc1cc(-c2cccc(C(F)(F)F)c2)c(Oc2cccc(C(F)(F)F)c2)nn1 | inhibition of growth at 750 g/ha | 79 |
| Cc1cc(-c2cccc(C(F)(F)F)c2)c(OCc2ccc(Br)cc2)nn1 | inhibition of growth at 750 g/ha | 23 |
| Cc1cc(-c2cccc(C(F)(F)F)c2)c(OCc2ccccc2Cl)nn1 | inhibition of growth at 750 g/ha | 47 |
| Cc1cc(-c2cccc(C(F)(F)F)c2)c(OCc2c(Cl)cccc2Cl)nn1 | inhibition of growth at 750 g/ha | 34 |
| Cc1cc(-c2cccc(C(F)(F)F)c2)c(OCc2ccccc2C(F)(F)F)nn1 | inhibition of growth at 750 g/ha | 46 |
| Cc1cc(-c2cccc(C(F)(F)F)c2)c(Oc2ccccc2Cl)nn1 | inhibition of growth at 750 g/ha | 84 |
| Cc1cc(-c2cccc(C(F)(F)F)c2)c(Oc2ccc(Br)cc2)nn1 | inhibition of growth at 750 g/ha | 100 |
| COc1ccc(COc2nnc(C)cc2-c2cccc(C(F)(F)F)c2)cc1 | inhibition of growth at 750 g/ha | 16 |
| Cc1cc(-c2cccc(C(F)(F)F)c2)c(OCc2ccccc2F)nn1 | inhibition of growth at 750 g/ha | 39 |
| Cc1cc(-c2cccc(C(F)(F)F)c2)c(Oc2ccc(Cl)c(Cl)c2)nn1 | inhibition of growth at 750 g/ha | 100 |
| COc1ccccc1COc1nnc(C)cc1-c1cccc(C(F)(F)F)c1 | inhibition of growth at 750 g/ha | 25 |
| Cc1cc(-c2cccc(C(F)(F)F)c2)c(Oc2ccccc2)nn1 | inhibition of growth at 750 g/ha | 75 |
| Cc1cc(-c2cccc(C(F)(F)F)c2)c(OCc2ccccc2)nn1 | inhibition of growth at 750 g/ha | 50 |
| Cc1cc(-c2cccc(C(F)(F)F)c2)c(OCc2cccc(Br)c2)nn1 | inhibition of growth at 750 g/ha | 39 |
| Cc1cc(-c2cccc(C(F)(F)F)c2)c(OCc2ccc(F)cc2)nn1 | inhibition of growth at 750 g/ha | 41 |
| Cc1cc(-c2cccc(C(F)(F)F)c2)c(Oc2ccc(Cl)cc2)nn1 | inhibition of growth at 750 g/ha | 94 |
| Cc1cccc(Oc2nnc(C)cc2-c2cccc(C(F)(F)F)c2)c1 | inhibition of growth at 750 g/ha | 55 |
| Cc1cc(-c2cccc(C(F)(F)F)c2)c(OCc2cccc(Cl)c2)nn1 | inhibition of growth at 750 g/ha | 31 |
| Cc1cc(-c2cccc(C(F)(F)F)c2)c(Oc2cc(F)cc(F)c2)nn1 | inhibition of growth at 750 g/ha | 100 |
| Cc1cc(-c2cccc(C(F)(F)F)c2)c(Oc2cccc(Br)c2)nn1 | inhibition of growth at 750 g/ha | 94 |
| Cc1ccc(Oc2nnc(C)cc2-c2cccc(C(F)(F)F)c2)cc1 | inhibition of growth at 750 g/ha | 84 |
| Cc1cc(C)cc(COc2nnc(C)cc2-c2cccc(C(F)(F)F)c2)c1 | inhibition of growth at 750 g/ha | 10 |
| Cc1cc(-c2cccc(C(F)(F)F)c2)c(Oc2ccc(F)cc2)nn1 | inhibition of growth at 750 g/ha | 96 |
| COc1cccc(COc2nnc(C)cc2-c2cccc(C(F)(F)F)c2)c1 | inhibition of growth at 750 g/ha | 12 |
| Cc1cc(-c2cccc(C(F)(F)F)c2)c(Oc2ccccc2F)nn1 | inhibition of growth at 750 g/ha | 73 |
| Cc1cc(-c2cccc(C(F)(F)F)c2)c(OCc2ccc(Cl)cc2Cl)nn1 | inhibition of growth at 750 g/ha | 35 |
| Cc1cc(-c2cccc(C(F)(F)F)c2)c(OCc2ccc(N(C)C)cc2)nn1 | inhibition of growth at 750 g/ha | 21 |
| Cc1cc(-c2cccc(C(F)(F)F)c2)c(Oc2ccccc2-c2ccccc2)nn1 | inhibition of growth at 750 g/ha | 25 |
| Cc1cccc(COc2nnc(C)cc2-c2cccc(C(F)(F)F)c2)c1 | inhibition of growth at 750 g/ha | 22 |
| Cc1cc(-c2cccc(C(F)(F)F)c2)c(Oc2c(C)cccc2C)nn1 | inhibition of growth at 750 g/ha | 34 |
| Cc1cc(-c2cccc(C(F)(F)F)c2)c(Oc2ccc(C(C)(C)C)cc2)nn1 | inhibition of growth at 750 g/ha | 38 |
| Cc1cc(-c2cccc(C(F)(F)F)c2)c(Oc2cccc(Cl)c2)nn1 | inhibition of growth at 750 g/ha | 63 |
| Cc1ccc(Oc2nnc(C)cc2-c2cccc(C(F)(F)F)c2)c(C)c1 | inhibition of growth at 750 g/ha | 64 |
| Cc1cc(C)cc(Oc2nnc(C)cc2-c2cccc(C(F)(F)F)c2)c1 | inhibition of growth at 750 g/ha | 8 |
| Cc1cc(-c2cccc(C(F)(F)F)c2)c(OCc2ccccc2C)nn1 | inhibition of growth at 750 g/ha | 29 |
| Cc1cc(-c2cccc(C(F)(F)F)c2)c(OCc2ccc(Cl)cc2)nn1 | inhibition of growth at 750 g/ha | 45 |
